Measured values drawn from PubChem BioAssay (NCATS) for this set.

system: 3D7; test: qHTS profiling for inhibitors of Plasmodium falciparum proliferation (AID 504749); also: nearly all actives have a fitted effect of over 60% in size; conditions: P. falciparum in erythrocytes, SYBR Green DNA, 72 h; series mostly up to 28.7 µM
Results filed as inconclusive are left out. Active and inactive are the calls of the source. Calls follow the shape of the dose curve; as a rule, active = well fitted inhibition curve with a large enough effect; inconclusive = small, poorly fitted or top-dose-only effect; inactive = flat fitted curve, though single readings scatter.
Possible outcomes: True for active, False for inactive

COMPOUND	DISCRETE_LABEL
O=C1c2ccccc2-c2n[nH]c3cccc1c23	False
Nc1ccn([C@@H]2O[C@H](CO)[C@@H](O)C2O)c(=O)n1 (stereo partly specified)	False
CCCCN(CCCC)CCC(O)c1cc2c(Cl)cc(Cl)cc2c2cc(C(F)(F)F)ccc12 (stereo unspecified)	True
CCN(CCO)CCCC(C)Nc1ccnc2cc(Cl)ccc12 (stereo unspecified)	True
C=CCc1cc(OC)c(O)c(C(=O)NCCO)c1	False
Cc1cc2cc3c(C)cc(=O)oc3c(C)c2o1	False
